Literature compilation of IC50 measurements on UniProt:Q9H5J4.
Write the figure, then the unit, nothing else.

Please review the following examples before continuing.
INSERT INTO results (compound, experimental_value) VALUES
  ('COc1ccccc1NC(=O)c1cccc(S(=O)(=O)N2CCC[C@@H](O)C2)c1', '5100 nM'),
  ('CC(C)Oc1ccc(NC(=O)c2cccc(S(=O)(=O)N3CCC(F)CC3)c2)cc1', '120 nM'),
  ('O=C1Nc2ccc(Cl)cc2C(CNC(=O)c2ccc(F)cc2)(C(F)(F)F)N1 (single isomer, unassigned)', '45 nM'),
  ('CCCCS(=O)(=O)N1C[C@H]2CC[C@@H]1[C@H](C(=O)Nc1cc(C3CC3)n[nH]1)C2 (relative stereo)', '155 nM');

Give IC50 for each of the items listed below.
1. CCC1(C(=O)Nc2cc(OC(C)C)[nH]n2)CCCN(S(=O)(=O)c2cn(C)cn2)C1 (stereo not drawn)
2. COCC(C)Oc1ccc(NC(=O)c2cccc(S(=O)(=O)c3ccccn3)c2)c(F)c1 (stereo not drawn)
3. COc1ccc(NC(=O)c2cccc(S(=O)(=O)NCCCCC(=O)O)c2)cc1

1: 38 nM; 2: 2700 nM; 3: 15000 nM

Here are 3 compounds. What values of IC50 were reported for them?
1. O=C(Nc1ccc(F)cc1)c1cccc(S(=O)(=O)N2CCCCC2)c1
2. O=C(Nc1cc(C2CC2)n[nH]1)c1cccc(S(=O)(=O)N2CCCC2)c1
3. O=C1Nc2ccc(Cl)cc2C(CCCNS(=O)(=O)c2ccccn2)(C(F)(F)F)O1 (single isomer, unassigned)

["14000 nM", "310 nM", "128 nM"]

For every record below, what is its IC50?
1. Cc1ccc(NC(=O)c2cccc(S(=O)(=O)N3CCCCC3)c2)cc1
2. O=C(Nc1ccc(OC(CF)CF)cc1F)c1cccc(S(=O)(=O)c2ccccn2)c1
3. CC(C)Oc1ccc(NC(=O)c2cccc(S(=O)(=O)c3ncccn3)c2)cc1
4. COc1cccc(NC(=O)c2cccc(S(=O)(=O)N3CCCCC3)c2)c1
5. CC(C)Oc1ccc(NC(=O)c2cccc(S(=O)(=O)N3CCC[C@H]3C)c2)cc1
6. CC(C)Oc1ccc(NC(=O)c2cccc(S(=O)(=O)NCC(C)c3nc4ccccc4[nH]3)c2)cc1 (stereo not drawn)
7. CC(C)Oc1ccc(C(=O)NCC2(C)CCCN(S(=O)(=O)c3ccccn3)C2)cc1 (stereo not drawn)
8. CC(C)Oc1cc(NC(=O)c2cccc(S(=O)(=O)c3ccccn3)c2)[nH]n1

["2600 nM", "350 nM", "130 nM", "1900 nM", "670 nM", "280 nM", "60 nM", "12 nM"]

Hey, can you go through the list below and give me IC50 for every item?
1. O=C(NCCCc1ccccc1)c1cccc(S(=O)(=O)N2CCCCC2)c1
2. CCOC(=O)C1CCCN(S(=O)(=O)c2cccc(C(=O)Nc3ncccc3OC)c2)C1 (stereo not drawn)
3. COc1ccc(NC(=O)c2cccc(S(=O)(=O)N3CCCCC3)c2)cn1
4. Cc1ccnc(S(=O)(=O)c2cccc(C(=O)Nc3ccc(OC(C)C)cc3)c2)c1
5. COc1ccc(C(=O)Nc2ccc(C(C)C)cc2)cc1S(=O)(=O)N1CCCCC1

1: 3000 nM; 2: 310 nM; 3: 3400 nM; 4: 1600 nM; 5: 5700 nM

====

pIC50 values for human LCE (Homo sapiens, UniProt Q9H5J4), compiled from several publications.
Give bare numbers, as −log10 of the molar value.

Use the examples below as a reference point.
INSERT INTO measurements (compound, experimental_value) VALUES
  ('CC(C)Oc1ccc(NC(=O)[C@@H]2CCC[C@@H](S(=O)(=O)c3ccccc3)C2)nc1 (racemic)', 7.52),
  ('COc1ccc(NC(=O)c2cccc(S(=O)(=O)N3CCCCC3)c2)c(OC)n1', 6.49),
  ('COc1ncccc1NC(=O)c1cccc(S(=O)(=O)N2CCCCC2)c1', 5.60),
  ('COc1cccnc1NC(=O)c1cccc(S(=O)(=O)N2C3CCCC2CC3)c1', 5.80),
  ('CC(C)Oc1ccc(NC(=O)c2cc(S(=O)(=O)N3CCCCC3)ccc2O)cc1', 5.44),
  ('CC(C)c1ccc(NC(=O)c2cccc(S(=O)(=O)Nc3ccccc3)c2)cc1', 5.28),
  ('CCCS(=O)(=O)N1CCCC(CNC(=O)c2ccc(OC(C)C)cn2)(c2ccccc2)C1 (stereo not shown)', 7.36),
  ('COc1ccc(NC(=O)c2cccc(S(=O)(=O)NC(C)(C)C)c2)cc1', 5.00),
  ('COc1ccccc1NC(=O)c1cccc(S(=O)(=O)N2CCCC(CO)C2)c1 (stereo not shown)', 6.30);

Return value of pIC50 for input CC(C)Oc1ccc(NC(=O)c2cccc(S(=O)(=O)N3CCCC(C(N)=O)C3)c2)nc1 (stereo not shown) , no commentary.
6.80
